The values you see were collected from paper PMC7531004.

system: Streptococcus pyogenes SSI-9; assay: Antibacterial activity assay of bead-derived peptides (three concentrations); format: cell-based; set-up: key: +++: inhibition by the 640-fold diluted peptide solution; ++: inhibition by the 160-fold diluted solution; +: inhibition by the 40-fold diluted solution; -: no inhibition; details: S. pyogenes, bead-derived peptide solution, three concentrations
Where a SMILES comes first, the peptide text is derived from it. [ ]: non-standard residue; d: D form. The star is where a group is joined. NHCH2CH2OH = OCCN*; For = O=C*
value_type: antibacterial activity

1. CC(C)C[C@@H](NC(=O)[C@H](C)NC(=O)CNC(=O)[C@@H](NC=O)C(C)C)C(=O)N[C@@H](C)C(=O)N[C@@H](C(=O)N[C@H](C(=O)N[C@@H](C(=O)N[C@@H](Cc1c[nH]c2ccccc12)C(=O)N[C@H](CC(C)C)C(=O)N[C@@H](Cc1c[nH]c2ccccc12)C(=O)N[C@H](CC(C)C)C(=O)N[C@@H](Cc1c[nH]c2ccccc12)C(=O)N[C@@H](C(=O)N[C@@H](Cc1c[nH]c2ccccc12)C(=O)NCCO)C(C)C)[C@H](C)O)C(C)C)C(C)C [compound 2235] (For-VGA[dL]A[dV]V[dT]W[dL]W[dL]W[dV]W-NHCH2CH2OH) :: +
2. CC(C)C[C@@H](NC(=O)[C@H](C)NC(=O)[C@H](NC(=O)[C@H](C)NC(=O)CNC(=O)[C@@H](NC=O)C(C)C)C(C)C)C(=O)N[C@H](C(=O)N[C@H](CC(C)C)C(=O)N[C@@H](Cc1c[nH]c2ccccc12)C(=O)N[C@@H](C(=O)N[C@@H](Cc1c[nH]c2ccccc12)C(=O)N[C@H](CC(C)C)C(=O)N[C@@H](Cc1c[nH]c2ccccc12)C(=O)N[C@@H](C(=O)N[C@@H](Cc1c[nH]c2ccccc12)C(=O)NCCO)C(C)C)C(C)C)C(C)C [compound 906] (For-VGA[dV]A[dL]V[dL]W[dV]W[dL]W[dV]W-NHCH2CH2OH) :: +
3. CC(C)[C@H](NC=O)C(=O)NCC(=O)N[C@@H](C)C(=O)N[C@@H](C(=O)N[C@@H](C)C(=O)N[C@@H](C(=O)N[C@H](C(=O)N[C@@H](C(=O)N[C@@H](Cc1c[nH]c2ccccc12)C(=O)N[C@@H](C(=O)N[C@@H](Cc1c[nH]c2ccccc12)C(=O)N[C@@H](C(=O)N[C@@H](Cc1c[nH]c2ccccc12)C(=O)N[C@@H](C(=O)N[C@@H](Cc1c[nH]c2ccccc12)C(=O)NCCO)C(C)C)C(C)C)[C@H](C)O)C(C)C)C(C)C)C(C)C)C(C)C [compound 532] (For-VGA[dV]A[dV]V[dV]W[dT]W[dV]W[dV]W-NHCH2CH2OH) :: -
4. CC(C)C[C@@H](NC(=O)[C@H](C)NC(=O)[C@H](NC(=O)[C@H](C)NC(=O)CNC(=O)[C@@H](NC=O)C(C)C)C(C)C)C(=O)N[C@H](C(=O)N[C@H](CC(C)C)C(=O)N[C@@H](Cc1c[nH]c2ccccc12)C(=O)N[C@H](CC(C)C)C(=O)N[C@@H](Cc1c[nH]c2ccccc12)C(=O)N[C@@H](C(=O)N[C@@H](Cc1c[nH]c2ccccc12)C(=O)N[C@H](CC(C)C)C(=O)N[C@@H](Cc1c[nH]c2ccccc12)C(=O)NCCO)[C@H](C)O)C(C)C [compound 2682] (For-VGA[dV]A[dL]V[dL]W[dL]W[dT]W[dL]W-NHCH2CH2OH) :: +
5. CC(C)C[C@@H](NC(=O)[C@H](Cc1c[nH]c2ccccc12)NC(=O)[C@H](NC(=O)[C@H](Cc1c[nH]c2ccccc12)NC(=O)[C@H](NC(=O)[C@H](Cc1c[nH]c2ccccc12)NC(=O)[C@H](NC(=O)[C@@H](NC(=O)[C@H](NC(=O)[C@H](C)NC(=O)[C@H](NC(=O)[C@H](C)NC(=O)CNC(=O)[C@@H](NC=O)C(C)C)C(C)C)C(C)C)C(C)C)C(C)C)C(C)C)C(C)C)C(=O)N[C@@H](Cc1c[nH]c2ccccc12)C(=O)NCCO [compound 2182] (For-VGA[dV]A[dV]V[dV]W[dV]W[dV]W[dL]W-NHCH2CH2OH) :: ++
6. CC(C)C[C@@H](NC(=O)[C@H](C)NC(=O)CNC(=O)[C@@H](NC=O)C(C)C)C(=O)N[C@@H](C)C(=O)N[C@@H](C(=O)N[C@H](C(=O)N[C@H](CC(C)C)C(=O)N[C@@H](Cc1c[nH]c2ccccc12)C(=O)N[C@@H](C(=O)N[C@@H](Cc1c[nH]c2ccccc12)C(=O)N[C@H](CC(C)C)C(=O)N[C@@H](Cc1c[nH]c2ccccc12)C(=O)N[C@@H](C(=O)N[C@@H](Cc1c[nH]c2ccccc12)C(=O)NCCO)[C@H](C)O)C(C)C)C(C)C)C(C)C [compound 5058] (For-VGA[dL]A[dV]V[dL]W[dV]W[dL]W[dT]W-NHCH2CH2OH) :: -

q: I have this compound here, CC(C)C[C@@H](NC(=O)[C@H](C)NC(=O)CNC(=O)[C@@H](NC=O)C(C)C)C(=O)N[C@@H](C)C(=O)N[C@H](CC(C)C)C(=O)N[C@H](C(=O)N[C@H](CC(C)C)C(=O)N[C@@H](Cc1c[nH]c2ccccc12)C(=O)N[C@@H](C(=O)N[C@@H](Cc1c[nH]c2ccccc12)C(=O)N[C@H](CC(C)C)C(=O)N[C@@H](Cc1c[nH]c2ccccc12)C(=O)N[C@@H](C(=O)N[C@@H](Cc1c[nH]c2ccccc12)C(=O)NCCO)[C@H](C)O)C(C)C)C(C)C [compound 770] (For-VGA[dL]A[dL]V[dL]W[dV]W[dL]W[dT]W-NHCH2CH2OH) , and I need its recorded antibacterial activity.
a: -

q: I have this compound here, CC(C)C[C@@H](NC(=O)[C@H](Cc1c[nH]c2ccccc12)NC(=O)[C@H](NC(=O)[C@@H](NC(=O)[C@H](NC(=O)[C@H](C)NC(=O)[C@H](NC(=O)[C@H](C)NC(=O)CNC(=O)[C@@H](NC=O)C(C)C)C(C)C)C(C)C)C(C)C)C(C)C)C(=O)N[C@@H](Cc1c[nH]c2ccccc12)C(=O)N[C@@H](C(=O)N[C@@H](Cc1c[nH]c2ccccc12)C(=O)N[C@@H](C(=O)N[C@@H](Cc1c[nH]c2ccccc12)C(=O)NCCO)C(C)C)C(C)C [compound 4830] (For-VGA[dV]A[dV]V[dV]W[dL]W[dV]W[dV]W-NHCH2CH2OH) , and I need its recorded antibacterial activity.
a: ++

q: Any idea what antibacterial activity was measured for CC(C)C[C@@H](NC(=O)[C@H](C)NC(=O)CNC(=O)[C@@H](NC=O)C(C)C)C(=O)N[C@@H](C)C(=O)N[C@@H](C(=O)N[C@H](C(=O)N[C@H](CC(C)C)C(=O)N[C@@H](Cc1c[nH]c2ccccc12)C(=O)N[C@@H](C(=O)N[C@@H](Cc1c[nH]c2ccccc12)C(=O)N[C@@H](C(=O)N[C@@H](Cc1c[nH]c2ccccc12)C(=O)N[C@H](CC(C)C)C(=O)N[C@@H](Cc1c[nH]c2ccccc12)C(=O)NCCO)C(C)C)[C@H](C)O)C(C)C)C(C)C [compound 2236] (For-VGA[dL]A[dV]V[dL]W[dT]W[dV]W[dL]W-NHCH2CH2OH) ?
a: +
